# Test system: PLK4
# MEASUREMENT_CONDITIONS: concentration: 1 μM,replicates: in singlicate; n = 1;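 further: KINOMEscan kinase panel screen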
Measured %Inh, listed per entry.
PROPERTY_LABEL: %Inh

In [3]: df
Out[3]:
                                    molecule  recorded_result
 0  O=C(Nc1cccc(Oc2ccc3nccn3n2)c1)Nc1cccc(C(F)(F)F)c1               0%
 1  N#Cc1cccc(C(=O)NC2CCN(c3ccnc(Nc4ccc(F)cc4)n3)C2)c1 (centres unmarked)               0%
 2  CN(c1ccc2c(c1)nc(NCc1ccc(F)cc1)n2C)c1ccnc(Nc2ccc(CS(C)(=O)=O)cc2)n1.Cl              73%
 3  C[C@@H](Oc1cc(-n2cnc3ccc(-c4ccncc4)cc32)sc1C(N)=O)c1ccccc1Cl               0%
 4  Cn1ccc2ncnc(Oc3ccc(NC(=O)Nc4cncc(C(F)(F)F)c4)c(Cl)c3)c21               0%
 5  CS(=O)c1ccc(-c2coc3ccc(-c4n[nH]c(=O)o4)cc23)cc1 (centres unmarked)              34%
 6  COc1cc(Nc2nccc(N3CCC(NC(=O)c4cccc(C#N)c4)C3)n2)cc(OC)c1OC (centres unmarked)              36%
 7  O=C(NOCC1CC1)c1cc(Br)c(F)c(F)c1Nc1ccc(I)cc1Cl               0%
 8  CCN1CCN(CCCC(=O)Nc2n[nH]c3nc(-c4ccc(O)cc4)c(Br)cc23)CC1               0%
 9  COC(=O)Nc1nc2cc(Oc3ccc(NC(=O)Nc4cc(C(F)(F)F)ccc4Cl)cc3)ccc2[nH]1.Cl               0%
10  COc1cc2ncn(-c3cc(OCC4CCCCC4)c(C(N)=O)s3)c2cc1OC               4%

====

# %Inh listing for each entry below
# Test system: AKT2
# MEASUREMENT_CONDITIONS: concentration: 1 μM,replicates: in singlicate; n = 1
PROPERTY_LABEL: %Inh (%)

                                    molecule  target_entity  property_label  recorded_result
 0  OCCn1cc(-c2cnc3nnn(Cc4ccc5ncccc5c4)c3n2)cn1           AKT2            %Inh                0
 1  CN(c1cccc(CNc2nc(Nc3ccc4c(c3)CC(=O)N4)ncc2C(F)(F)F)c1)S(C)(=O)=O           AKT2            %Inh                0
 2  C[C@@H]1CCN(C(=O)N2CCCC2)C[C@@H]1N(C)c1ncnc2[nH]ccc12           AKT2            %Inh                3
 3  Cc1cccc2c(-c3ccncc3)c(-c3ccc(F)cc3)nn12.Cl           AKT2            %Inh                2
 4             O=C1NCCc2[nH]c(-c3ccncc3)cc21           AKT2            %Inh                0
 5  CN(c1ccccc1CNc1nc(Nc2ccc3c(c2)CC(=O)N3)ncc1C(F)(F)F)S(C)(=O)=O           AKT2            %Inh                0
 6  Cn1ccc2ncnc(Oc3ccc(NC(=O)Nc4cc(C(C)(C)C)on4)c(Cl)c3)c21           AKT2            %Inh                0
 7  Cl.c1ccc(Oc2ccc(Nc3ccnc4cc(-c5ccc(CN6CCNCC6)o5)ccc34)cc2)nc1           AKT2            %Inh                0
 8  COc1cccc(C2=C(Nc3cccc(Cl)c3)C(=O)NC2=O)c1           AKT2            %Inh                0
 9  COC(=O)c1cccc(NC(=O)NC2CCN(c3ccnc(Nc4cc(OC)c(OC)c(OC)c4)n3)C2)c1 (stereo not drawn)           AKT2            %Inh                0
10  Cc1n[nH]c2cc(Nc3ccnc(Nc4cccc(CN5CCOCC5)c4)n3)ccc12           AKT2            %Inh                0
11  O=C(NOCC1CC1)c1cc(Br)c(F)c(F)c1Nc1ccc(I)cc1Cl           AKT2            %Inh                0
12  C[C@@H](Oc1cc(-n2cnc3cc(-c4ccncc4)ccc32)sc1C(N)=O)c1ccccc1Cl           AKT2            %Inh                6
13  C[C@@H]1CNc2c(sc3ccc4nc(-c5ccc(O)cc5)ccc4c23)C(=O)N1           AKT2            %Inh                0
14  Cc1ccc(CC(=O)N2CCc3cc(-c4cn(C)c5ncnc(N)c45)ccc32)cc1           AKT2            %Inh                1
15  NC(=O)c1ccc(-c2cc3ncnc(SCC(=O)O)c3s2)cc1           AKT2            %Inh                0
16  COc1cc2nccc(Nc3ccc(Oc4ccccc4)cc3)c2cc1OC.Cl           AKT2            %Inh                0
17  COc1cccc(CNC(=O)NC2CCN(c3ccnc(Nc4cc(OC)c(OC)c(OC)c4)n3)C2)c1 (stereo not drawn)           AKT2            %Inh               17
18  Cl.Cl.NC[C@H](CC1CCCCC1)NC(=O)c1ccc(-c2ccnc3[nH]ccc23)s1           AKT2            %Inh             93.4
19  Cc1nnc(-c2ccc3occ(-c4ccc(S(C)=O)cc4)c3n2)o1 (stereo not drawn)           AKT2            %Inh               17
20  C[C@@H](Oc1cc(-n2cnc3cc(-c4cnn(C)c4)ccc32)sc1C(N)=O)c1ccccc1Cl           AKT2            %Inh                0

====

Entries and their %Inh values follow.
# System: STK35
# MEASUREMENT_CONDITIONS: concentration: 1 μM,replicates: in singlicate; n = 1
PROPERTY_LABEL: %Inh (%)

                                   molecule  property_label  recorded_result
0  COc1cccc(C2=C(Nc3cccc(Cl)c3)C(=O)NC2=O)c1 [SB-341556]            %Inh             94.9
1  C[C@@H]1CNc2c(sc3ccc4nc(-c5ccc(O)cc5)ccc4c23)C(=O)N1            %Inh                9
2  Cn1ccc2ncnc(Oc3ccc(NC(=O)Nc4cnn(C(C)(C)C)c4)c(Cl)c3)c21            %Inh                0
3  COc1cc2ncn(-c3cc(OCC4CCCCC4)c(C(N)=O)s3)c2cc1OC [GSK204559]            %Inh               30
4  CC(=O)Nc1ccc(-c2cc3ncnc(SCC(=O)O)c3s2)cc1            %Inh               20
5  Cc1cccc2c(-c3ccncc3)c(-c3ccc(F)cc3)nn12.Cl [GW461487]            %Inh                0
6  Cc1cccc(-c2nc(Nc3ccncc3)c3sccc3n2)n1 [GW869641]            %Inh                1
7  Cl.Cl.NC[C@H](CC1CCCCC1)NC(=O)c1ccc(-c2ccnc3[nH]ccc23)s1 [GSK1581428]            %Inh               63
8  COc1cc2c(Nc3ccc(NC(=O)c4ccccc4)cc3)ncnc2cc1OCCCN1CCOCC1 [GSK301329]            %Inh                4
9  COc1ccc(Nc2nccc(N3CCC(NC(=O)c4cccc(C#N)c4)C3)n2)cc1 (stereo not shown) [GSK1379730]            %Inh                0

====

# System: CDK4
# MEASUREMENT_CONDITIONS: concentration: 1 μM,replicates: in singlicate; n = 1
PROPERTY_LABEL: %Inh (%)

>>> df
                                   compound  property_label  recorded_result
0  Cc1ccc2c(-c3ccnc(Nc4ccc(C(F)(F)F)cc4)n3)cnn2n1 [GW819776]            %Inh               16
1  Cc1ccc(CC(=O)N2CCc3cc(-c4cn(C)c5ncnc(N)c45)ccc32)cc1 [GSK2634758]            %Inh               26
2  O=C(Nc1ccc(Oc2ccc3nc(NC(=O)C4CC4)cn3n2)c(F)c1)c1cccn(-c2ccccc2)c1=O            %Inh                0
